target-or-system: Mitogen-activated protein kinase kinase kinase 12 (Homo sapiens)
Sequence (Q12852 whole entry): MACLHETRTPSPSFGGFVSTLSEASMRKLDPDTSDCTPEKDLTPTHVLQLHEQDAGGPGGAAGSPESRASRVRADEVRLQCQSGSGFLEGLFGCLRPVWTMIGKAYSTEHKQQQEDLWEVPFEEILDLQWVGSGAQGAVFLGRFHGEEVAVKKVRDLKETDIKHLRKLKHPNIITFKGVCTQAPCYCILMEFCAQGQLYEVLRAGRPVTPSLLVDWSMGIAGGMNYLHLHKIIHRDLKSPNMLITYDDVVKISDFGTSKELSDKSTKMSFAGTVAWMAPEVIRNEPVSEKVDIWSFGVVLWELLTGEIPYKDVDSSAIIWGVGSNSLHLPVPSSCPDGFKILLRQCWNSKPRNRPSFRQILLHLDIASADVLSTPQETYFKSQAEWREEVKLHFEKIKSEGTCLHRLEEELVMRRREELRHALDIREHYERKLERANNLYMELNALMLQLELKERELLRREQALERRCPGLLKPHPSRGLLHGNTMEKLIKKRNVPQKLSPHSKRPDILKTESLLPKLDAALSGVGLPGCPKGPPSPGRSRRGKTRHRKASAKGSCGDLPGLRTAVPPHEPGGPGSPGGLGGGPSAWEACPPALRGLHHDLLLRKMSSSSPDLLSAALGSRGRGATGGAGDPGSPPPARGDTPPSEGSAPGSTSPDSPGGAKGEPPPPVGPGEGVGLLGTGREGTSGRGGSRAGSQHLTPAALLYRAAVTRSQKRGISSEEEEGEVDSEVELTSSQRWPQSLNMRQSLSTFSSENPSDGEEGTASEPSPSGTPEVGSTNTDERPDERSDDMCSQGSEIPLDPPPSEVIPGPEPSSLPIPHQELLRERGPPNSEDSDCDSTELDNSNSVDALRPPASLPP
assay-summary: Inhibition of DLK (unknown origin)
parameter-measured: Ki (nM)

# compound, target-or-system, Ki, nM
data = [
    ("CC(=O)N1CCC(c2cc(Nc3cc(C(F)(F)F)ccn3)nc(N3CCOCC3)n2)CC1", "Mitogen-activated protein kinase kinase kinase 12 (Homo sapiens)", 431),
    ("CC(C)(C#N)c1cc(Nc2cc(C#N)ccn2)nc(N2CCC(F)(F)C2)c1", "Mitogen-activated protein kinase kinase kinase 12 (Homo sapiens)", 14),
    ("CC(=O)N1CCC(c2cc(Nc3cc(C(F)(F)F)ccn3)nc(N3CC(F)(F)C3)n2)CC1", "Mitogen-activated protein kinase kinase kinase 12 (Homo sapiens)", 166),
]

1. N#Cc1ccnc(Nc2cc(C3CCN(C4COC4)CC3)cc(N3CCC3)n2)c1
2. N#Cc1ccnc(Nc2cc(C3(C#N)CCOCC3)cc(N3CCC(F)(F)C3)n2)c1
Task item: Hello, I am sorting some records. Could you say if 1 or 2 has the smaller Ki value? I would appreciate it if you answered with the label of your choice.
Reply: 2
(2: 5 nM, 1: 8 nM)

---

assay-summary: Plasma clearance in cynomolgus monkey at 1 mg/kg, iv and 5 mg/kg, po
Assay type: ADME, organism-based, Macaca fascicularis
parameter-measured: clearance (mL/min/kg)
Express the result in mL/min/kg but write the number alone.

Task item: Look up clearance for this compound: `N#Cc1ccnc(Nc2cc(C3CCN(C4COC4)CC3)cc(N3CCC(F)(F)C3)n2)c1`
Reply: 16

---

target-or-system: Mitogen-activated protein kinase kinase kinase 12 (Homo sapiens)
assay-summary: Inhibition of DLK (unknown origin)
pKi: −log10 of the molar value.
parameter-measured: pKi

# compound, pKi
data = [
    ("Cc1nc(Nc2cc(C(C)C)ccn2)cc(C2CCCN(C(=O)c3ccccc3)C2)n1 (racemic)", 8.40),
]

P. COc1ccnc(Nc2cc(C3CCCN(C(=O)c4ccccc4)C3)nc(C)n2)c1 (racemic)
Q. Cc1nc(Nc2ccccn2)cc(C2CCCN(C(=O)c3ccccc3)C2)n1 (racemic)
Task item: Hello, I am sorting some records. Could you say if P or Q has the smaller pKi value? I would appreciate it if you answered with the label of your choice.
Reply: Q

---

target-or-system: Mitogen-activated protein kinase kinase kinase 12 (Homo sapiens, UniProt Q12852)
assay-summary: Inhibition of human DLK transfected in HEK293 cells assessed as JNK phosphorylation after 5.5 hrs by Hoechst-33342 staining-based assay
pIC50: −log10 of the molar value.
parameter-measured: pIC50

Consider the following illustrative entries.
# compound, measured-result
rows = [
    ("N#Cc1ccnc(Nc2cc(C3CCN(C4COC4)CC3)cc(C3CC3)n2)c1", 7.21),
    ("COC1CN(c2cc(C3CCN(C4COC4)CC3)cc(Nc3cc(C#N)ccn3)n2)C1", 6.63),
    ("Cc1ccnc(Nc2cc(C3CCCN(C(=O)c4ccccc4)C3)nc(C)n2)c1 (racemic)", 6.12),
]

P. Cc1nc(Nc2ncc(C)s2)cc(C2CCCN(C(=O)c3ccccc3)C2)n1 (racemic)
Q. N#Cc1ccnc(Nc2cc(C3CN(C4COC4)C3)cc(N3CCC(F)(F)C3)n2)c1
R. FC(F)(F)c1ccnc(Nc2cc(C3CCCNC3)nc(N3CCCC3)n2)c1 (centres undefined)
S. CC(=O)N1CCC(c2cc(Nc3cc(C(F)(F)F)ccn3)nc(N3CCC(F)(F)C3)n2)CC1
Task item: Ascending by pIC50, please. # the answer lists labels in the order requested
Reply: P, S, R, Q

1. Cc1nc(Nc2cc(C#N)ccn2)cc(C2CCCN(C(=O)c3ccccc3)C2)n1 (racemic)
2. FC1(F)CCN(c2nc(Nc3cc(C(F)(F)F)ccn3)cc(C3CCOCC3)n2)C1
Task item: Between 1 and 2 , which one shows the larger pIC50 value? I would appreciate it if you answered with the label of your choice.
Reply: 2

---

target-or-system: Mitogen-activated protein kinase kinase kinase 11 (Homo sapiens, UniProt Q16584)
Sequence (Q16584 whole entry): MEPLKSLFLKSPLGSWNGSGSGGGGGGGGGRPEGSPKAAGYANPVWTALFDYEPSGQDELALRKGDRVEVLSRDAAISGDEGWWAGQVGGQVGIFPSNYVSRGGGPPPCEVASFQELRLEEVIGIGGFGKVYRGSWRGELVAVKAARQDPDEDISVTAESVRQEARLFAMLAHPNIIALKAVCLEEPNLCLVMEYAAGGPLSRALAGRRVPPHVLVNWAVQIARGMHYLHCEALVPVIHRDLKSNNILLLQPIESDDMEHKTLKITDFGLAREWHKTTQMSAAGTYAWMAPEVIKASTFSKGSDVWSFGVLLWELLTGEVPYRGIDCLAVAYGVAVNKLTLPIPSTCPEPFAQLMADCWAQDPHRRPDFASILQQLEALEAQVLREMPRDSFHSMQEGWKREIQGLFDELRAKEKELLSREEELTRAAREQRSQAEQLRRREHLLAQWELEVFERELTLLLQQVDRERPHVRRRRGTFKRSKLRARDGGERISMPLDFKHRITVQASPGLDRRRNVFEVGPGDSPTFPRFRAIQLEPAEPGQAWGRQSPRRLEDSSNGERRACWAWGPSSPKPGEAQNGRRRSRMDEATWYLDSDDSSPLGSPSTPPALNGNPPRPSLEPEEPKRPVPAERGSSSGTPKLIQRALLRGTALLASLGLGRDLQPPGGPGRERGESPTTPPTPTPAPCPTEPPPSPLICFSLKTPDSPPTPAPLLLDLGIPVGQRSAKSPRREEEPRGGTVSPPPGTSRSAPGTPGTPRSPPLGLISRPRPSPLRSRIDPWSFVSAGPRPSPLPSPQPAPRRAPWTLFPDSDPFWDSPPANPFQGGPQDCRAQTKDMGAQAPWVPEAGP
assay-summary: Inhibition of MLK3 (unknown origin)
parameter-measured: IC50 (nM)
Express the result in nM but write the number alone.

Task item: Look up IC50 for this molecule: `N#Cc1ccnc(Nc2cc(C3CCN(C4COC4)CC3)cc(N3CCC(F)(F)C3)n2)c1`
Reply: 602

---

assay-summary: Half life in cynomolgus monkey at 1 mg/kg, iv and 5 mg/kg, po
Format: ADME, organism-based, Macaca fascicularis
condition-set: in vivo
parameter-measured: half-life (h)
Express the result in h but write the number alone.

Task item: Look up half-life for this compound: `N#Cc1ccnc(Nc2cc(C3CCN(C4COC4)CC3)cc(N3CCC(F)(F)C3)n2)c1`
Reply: 2.4

---

assay-summary: Volume of distribution at steady state in cynomolgus monkey at 1 mg/kg, iv and 5 mg/kg, po
Type: ADME, organism-based, Macaca fascicularis
condition-set: in vivo, read-out: Vdss
parameter-measured: Vd (L/kg)
Express the result in L/kg but write the number alone.

Task item: Look up Vd for this molecule: `N#Cc1ccnc(Nc2cc(C3CCN(C4COC4)CC3)cc(N3CCC(F)(F)C3)n2)c1`
Reply: 3.1

---

target-or-system: Mitogen-activated protein kinase 10 (Homo sapiens, UniProt P53779)
Sequence (P53779 whole entry): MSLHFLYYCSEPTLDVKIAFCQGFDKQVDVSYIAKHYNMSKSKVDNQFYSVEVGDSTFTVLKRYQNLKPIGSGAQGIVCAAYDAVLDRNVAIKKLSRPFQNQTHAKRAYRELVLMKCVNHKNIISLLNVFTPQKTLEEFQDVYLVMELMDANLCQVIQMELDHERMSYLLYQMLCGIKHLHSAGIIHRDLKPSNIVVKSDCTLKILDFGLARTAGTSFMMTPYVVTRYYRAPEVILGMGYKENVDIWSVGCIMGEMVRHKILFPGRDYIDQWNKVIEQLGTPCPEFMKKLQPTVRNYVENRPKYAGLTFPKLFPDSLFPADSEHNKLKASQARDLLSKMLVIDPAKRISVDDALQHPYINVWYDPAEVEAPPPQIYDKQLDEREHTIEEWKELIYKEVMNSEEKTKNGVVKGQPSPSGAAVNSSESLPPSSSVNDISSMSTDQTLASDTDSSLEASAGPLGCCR
assay-summary: Inhibition of JNK3 (unknown origin)
parameter-measured: IC50 (nM)
Express the result in nM but write the number alone.

Task item: Look up IC50 for this molecule: `N#Cc1ccnc(Nc2cc(C3CCN(C4COC4)CC3)cc(N3CCC(F)(F)C3)n2)c1`
Reply: 364

---

target-or-system: Dual specificity mitogen-activated protein kinase kinase 7 (Homo sapiens, UniProt O14733)
Sequence (O14733 whole entry): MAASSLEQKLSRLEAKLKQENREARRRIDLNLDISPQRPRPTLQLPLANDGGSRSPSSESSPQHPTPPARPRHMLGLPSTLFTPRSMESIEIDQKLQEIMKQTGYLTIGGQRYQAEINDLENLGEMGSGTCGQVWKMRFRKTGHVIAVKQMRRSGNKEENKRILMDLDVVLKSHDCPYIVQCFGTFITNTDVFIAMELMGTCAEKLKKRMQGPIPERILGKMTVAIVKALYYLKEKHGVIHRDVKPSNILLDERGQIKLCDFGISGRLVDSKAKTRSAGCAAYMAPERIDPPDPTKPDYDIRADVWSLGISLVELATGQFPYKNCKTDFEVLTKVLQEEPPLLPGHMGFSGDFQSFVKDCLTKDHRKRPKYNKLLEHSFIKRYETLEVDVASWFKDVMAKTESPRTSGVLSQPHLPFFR
assay-summary: Inhibition of MKK7 (unknown origin)
pIC50: −log10 of the molar value.
parameter-measured: pIC50

Task item: Look up pIC50 for this compound: `N#Cc1ccnc(Nc2cc(C3CCN(C4COC4)CC3)cc(N3CCC(F)(F)C3)n2)c1`
Reply: < 5.30

---

assay-summary: Volume of distribution at steady state in rat at 1 mg/kg, iv and 5 mg/kg, po
Assay type: ADME, organism-based
condition-set: in vivo, read-out: Vdss
parameter-measured: Vd (L/kg)
Express the result in L/kg but write the number alone.

Task item: Look up Vd for this molecule: `N#Cc1ccnc(Nc2cc(C3CCN(C4COC4)CC3)cc(N3CCC(F)(F)C3)n2)c1`
Reply: 3.7

---

target-or-system: Mitogen-activated protein kinase kinase kinase 12 (Homo sapiens, UniProt Q12852)
assay-summary: Inhibition of human DLK transfected in HEK293 cells assessed as JNK phosphorylation after 5.5 hrs by Hoechst-33342 staining-based assay
pIC50: −log10 of the molar value.
parameter-measured: pIC50

Consider the following illustrative entries.
# compound, target-or-system, measured-result
records = [
    ("CCc1cc(C2CCN(C3COC3)CC2)cc(Nc2cc(C#N)ccn2)n1", "Mitogen-activated protein kinase kinase kinase 12 (Homo sapiens, UniProt Q12852)", 6.67),
    ("FC1(F)CCN(c2nc(Nc3cc(C(F)(F)F)ccn3)cc(C3CCCNC3)n2)C1 (centres undefined)", "Mitogen-activated protein kinase kinase kinase 12 (Homo sapiens, UniProt Q12852)", 6.39),
]

1. Cc1nc(Nc2cc(C(F)(F)F)ccn2)cc(C2CCCN(C(=O)c3ccccc3)C2)n1 (racemic)
2. N#Cc1ccnc(Nc2cc(C3CCN(C4COC4)CC3)cc(N3CCC3)n2)c1
3. N#Cc1ccnc(Nc2cc(C3(C#N)CCOCC3)cc(N3CCC(F)(F)C3)n2)c1
Task item: Ascending by pIC50, please. # the answer lists labels in the order requested
Reply: 1, 2, 3

A. Cc1cc(C2CCN(C3COC3)CC2)cc(Nc2cc(C#N)ccn2)n1
B. COc1ccnc(Nc2cc(C3CCCN(C(=O)c4ccccc4)C3)nc(C)n2)c1 (racemic)
Task item: Between A and B , which one shows the larger pIC50 value? I would appreciate it if you answered with the label of your choice.
Reply: B
(B: 6.00, A: 5.80)
